# Tested on: 624824-186-R-J2-PDC multicell spheroids, viability
# measurement description: Anticancer human tumor 624824-186-R-J2-PDC patient-derived colon adenocarcinoma cell line growth inhibition [PI3K]
# measurement setup: second compound 1 µM; first compound 3.16 µM; active compounds read low
# viability, T/C per record follows
Provide only the numeric value, understood in %.

# molecule, viability, T/C [%]
records = [
    ("C[C@@H](NC(=O)c1ncnc(N)c1Cl)c1ncc(C(=O)Nc2cc(C(F)(F)F)c(Cl)cn2)s1 + CC(Nc1ccc2c(c1)OCCn1cc(N3C(=O)OCC3C(F)F)nc1-2)C(N)=O", 55.4),
]

## Input Suppose we examine the molecule CC1(C)CCC(CN2CCN(c3ccc(C(=O)NS(=O)(=O)c4ccc(NCC5CCOCC5)c([N+](=O)[O-])c4)c(Oc4cnc5[nH]ccc5c4)c3)CC2)=C(c2ccc(Cl)cc2)C1 + COc1c(OCCCN2CCOCC2)ccc2c3n(c(=NC(=O)c4cnc(N)nc4)nc12)CCN3 ; what viability, T/C value has been reported?
## Output 64.7

## Input Item: Cn1ncc(Cl)c1-c1cc(C(=O)NC(CN)Cc2cccc(F)c2)sc1Cl (stereo not given) + CC(Nc1ccc2c(c1)OCCn1cc(N3C(=O)OCC3C(F)F)nc1-2)C(N)=O
## Output 75.7

## Input Item: CNC(=O)c1ccc(N2C(=S)N(c3ccc(C#N)c(C(F)(F)F)c3)C(=O)C2(C)C)cc1F + COc1c(OCCCN2CCOCC2)ccc2c3n(c(=NC(=O)c4cnc(N)nc4)nc12)CCN3
## Output 63

## Input Item: Cn1nccc1Nc1nccc(-c2ccn(C(CO)c3ccc(Cl)c(F)c3)c(=O)c2)n1 (stereo not given) + COc1c(OCCCN2CCOCC2)ccc2c3n(c(=NC(=O)c4cnc(N)nc4)nc12)CCN3
## Output 14.9

## Input Item: CC(C)NCC(C(=O)N1CCN(c2ncnc3c2C(C)CC3O)CC1)c1ccc(Cl)cc1 (stereo not given) + Cc1nc(NC(=O)N2CCCC2C(N)=O)sc1-c1ccnc(C(C)(C)C(F)(F)F)c1
## Output 76.5

## Input Item: CC1(C)CCC(CN2CCN(c3ccc(C(=O)NS(=O)(=O)c4ccc(NCC5CCOCC5)c([N+](=O)[O-])c4)c(Oc4cnc5[nH]ccc5c4)c3)CC2)=C(c2ccc(Cl)cc2)C1 + Cc1nc(NC(=O)N2CCCC2C(N)=O)sc1-c1ccnc(C(C)(C)C(F)(F)F)c1
## Output 100

## Input Item: CC(Cn1ccc(-c2ccc(C#N)c(Cl)c2)n1)NC(=O)c1cc(C(C)O)[nH]n1 (stereo not given) + CC(Nc1ncnc2nc[nH]c12)c1cc2cccc(Cl)c2c(=O)n1-c1ccccc1
## Output 80.5

## Input Item: C=CC(=O)N1CCN(c2nc(=O)n(-c3c(C)ccnc3C(C)C)c3nc(-c4c(O)cccc4F)c(F)cc23)C(C)C1 (stereo not given) + COc1c(OCCCN2CCOCC2)ccc2c3n(c(=NC(=O)c4cnc(N)nc4)nc12)CCN3
## Output 64.5

## Input Item: Cn1nccc1Nc1nccc(-c2ccn(C(CO)c3ccc(Cl)c(F)c3)c(=O)c2)n1 (stereo not given) + CC(Nc1ccc2c(c1)OCCn1cc(N3C(=O)OCC3C(F)F)nc1-2)C(N)=O
## Output 42.5

----------
# Tested on: 624824-186-R-J2-PDC multicell spheroids, viability
# measurement description: Anticancer human tumor 624824-186-R-J2-PDC cell line growth inhibition [PI3K];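 further: spheroids exposed to agents for 7 days before viability read; 100% = DMSO vehicle treated spheroids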
# measurement setup: second compound 0.01 µM; first compound 0.316 µM; active compounds read low
observed property: viability, T/C (%)
Provide only the numeric value, understood in %.

# molecule, observed property, reported result
data = [
    ("CNC(=O)c1ccc(N2C(=S)N(c3ccc(C#N)c(C(F)(F)F)c3)C(=O)C2(C)C)cc1F + COc1c(OCCCN2CCOCC2)ccc2c3n(c(=NC(=O)c4cnc(N)nc4)nc12)CCN3", "viability, T/C", 99.3),
]

## Input Suppose we examine the molecule CNC(=O)c1ccc(N2C(=S)N(c3ccc(C#N)c(C(F)(F)F)c3)C(=O)C2(C)C)cc1F + CC(Nc1ccc2c(c1)OCCn1cc(N3C(=O)OCC3C(F)F)nc1-2)C(N)=O ; what viability, T/C value has been reported?
## Output 88.5

## Input Item: C[C@@H](NC(=O)c1ncnc(N)c1Cl)c1ncc(C(=O)Nc2cc(C(F)(F)F)c(Cl)cn2)s1 + COc1c(OCCCN2CCOCC2)ccc2c3n(c(=NC(=O)c4cnc(N)nc4)nc12)CCN3
## Output 106

## Input Item: C#Cc1c(F)ccc2cc(O)cc(-c3ncc4c(N5CC6CCC(C5)N6)nc(OCC56CCCN5CC(F)C6)nc4c3F)c12 (stereo not given) + COc1c(OCCCN2CCOCC2)ccc2c3n(c(=NC(=O)c4cnc(N)nc4)nc12)CCN3
## Output 89.8

## Input Item: CC(Cn1ccc(-c2ccc(C#N)c(Cl)c2)n1)NC(=O)c1cc(C(C)O)[nH]n1 (stereo not given) + CC(Nc1ccc2c(c1)OCCn1cc(N3C(=O)OCC3C(F)F)nc1-2)C(N)=O
## Output 88.5

Origin of the recorded values: PubChem BioAssay AID1963975
